- System: A549
- ASSAY INFO: Antiproliferative activity against human A549 cells measured after 24 hrs by CCK8 assay
- Assay type: functional, cell-based
- PARTICULARS: A549, 24 h
Exercise: state measured pIC50 for each of the compounds provided.
// returns pIC50 (minus log10 of molar concentration), number only

A549 data for "O=C(C1=CC[C@@H](c2ccccc2)[C@@]2(S1)C(=O)Nc1cccc(Cl)c12)c1ccccc1" ; its pIC50: 5.00

Short answer on A549 for "COc1ccc(C2=N[C@H](c3ccc(Cl)cc3)[C@H](c3ccc(Cl)cc3)N2C(=O)N2CCNC(=O)C2)c(OC(C)C)c1" , pIC50: 5.62

Entry "O=C(C1=CC[C@@H](c2ccc(F)cc2)[C@@]2(S1)C(=O)Nc1cccc(Br)c12)c1ccccc1" under A549 had pIC50 of 5.31

Bench note, A549: entry "O=C(C1=CC[C@@H](c2ccccc2)[C@@]2(S1)C(=O)Nc1cc(F)ccc12)c1ccccc1" , its pIC50 = 5.21

// assay A549, entry "O=C(C1=CC[C@@H](c2ccccc2)[C@@]2(S1)C(=O)Nc1cc(Br)ccc12)c1ccccc1" , pIC50 value = 5.32

The observed pIC50 for "O=C(C1=CC[C@@H](c2ccccc2)[C@@]2(S1)C(=O)Nc1cccc(Br)c12)c1ccco1" when tested with A549 stands at 5.35

Measured pIC50 for this entry "O=C(C1=CC[C@@H](c2ccc(Br)cc2)[C@@]2(S1)C(=O)Nc1ccccc12)c1ccccc1" on A549: 5.68

Query "O=C(C1=CC[C@@H](c2ccc(Br)cc2)[C@@]2(S1)C(=O)Nc1cccc(Br)c12)c1ccccc1" on A549; pIC50 returned: 5.82

Entry "O=C(C1=CC[C@@H](c2ccccc2)[C@@]2(S1)C(=O)Nc1cccc(Br)c12)c1ccccc1" under A549 had pIC50 of 5.51

----------
- System: MCF7
- ASSAY INFO: Antiproliferative activity against human MCF7 cells measured after 24 hrs by CCK8 assay
- Format: functional, cell-based
- PARTICULARS: MCF7, 24 h
QUANTITY NAME: pIC50
In simple prose, pIC50 is minus the logarithm base ten of a concentration in moles per litre.

// sample "O=C(C1=CC[C@@H](c2ccc(Br)cc2)[C@@]2(S1)C(=O)Nc1cccc(Br)c12)c1ccccc1" , its pIC50 was 5.06

For record "O=C(C1=CC[C@@H](c2ccccc2)[C@@]2(S1)C(=O)Nc1cccc(Br)c12)c1ccco1" the listed pIC50 is 5.32

Record summary for "COc1ccc(C2=N[C@H](c3ccc(Cl)cc3)[C@H](c3ccc(Cl)cc3)N2C(=O)N2CCNC(=O)C2)c(OC(C)C)c1" : reported pIC50 = 4.92

// pIC50 lookup, compound = "O=C(C1=CC[C@@H](c2ccc(Br)cc2)[C@@]2(S1)C(=O)Nc1ccccc12)c1ccccc1" , result: 5.17

get_value(item= "CC[C@@H]1CC=C(C(=O)c2ccc(OC)cc2)S[C@@]12C(=O)Nc1cccc(Br)c12" , readout=pIC50) returns 4.88

Reported pIC50 of "O=C(C1=CC[C@@H](c2ccc(F)cc2)[C@@]2(S1)C(=O)Nc1ccccc12)c1ccccc1" : 4.85

Record "O=C(C1=CC[C@@H](c2ccccc2)[C@@]2(S1)C(=O)Nc1ccccc12)c1ccccc1" , field pIC50: 4.97

Entry "O=C(C1=CC[C@@H](c2ccc(Cl)cc2)[C@@]2(S1)C(=O)Nc1ccccc12)c1ccccc1" — recorded pIC50 = 5.07

Entry "O=C(C1=CC[C@@H](c2ccccc2)[C@@]2(S1)C(=O)Nc1cc(Br)ccc12)c1ccccc1" ; pIC50 = 5.00

Form: compound = "O=C(C1=CC[C@@H](c2ccccc2)[C@@]2(S1)C(=O)Nc1ccc(F)cc12)c1ccccc1" ; pIC50 = 5.26

Sample "O=C(C1=CC[C@@H](c2ccccc2)[C@@]2(S1)C(=O)Nc1cccc(Br)c12)c1ccc(Br)cc1" ; pIC50 observed: 5.09

----------
QUANTITY NAME: Ki (µM)
Field: numeric (µM). Do not append units.

Summary line: "O=C(C1=CC[C@@H](c2ccc(Br)cc2)[C@@]2(S1)C(=O)Nc1ccccc12)c1ccccc1" , E3 ubiquitin-protein ligase Mdm2 (Homo sapiens), reported Ki = 19.8

Short answer on E3 ubiquitin-protein ligase Mdm2 (Homo sapiens) for "O=C(C1=CC[C@@H](c2ccccc2)[C@@]2(S1)C(=O)Nc1cccc(Br)c12)c1ccco1" , Ki: 43.8
